Recorded values, source patent US4977153A.

Target: beta adrenoceptor (guinea pig atrium) (Cavia porcellus)
Construct: in the spontaneously beating guinea pig atrium; from tissue; host or cells: guinea pig atrium, spontaneously beating
Sequence (H0W3H1 1-470): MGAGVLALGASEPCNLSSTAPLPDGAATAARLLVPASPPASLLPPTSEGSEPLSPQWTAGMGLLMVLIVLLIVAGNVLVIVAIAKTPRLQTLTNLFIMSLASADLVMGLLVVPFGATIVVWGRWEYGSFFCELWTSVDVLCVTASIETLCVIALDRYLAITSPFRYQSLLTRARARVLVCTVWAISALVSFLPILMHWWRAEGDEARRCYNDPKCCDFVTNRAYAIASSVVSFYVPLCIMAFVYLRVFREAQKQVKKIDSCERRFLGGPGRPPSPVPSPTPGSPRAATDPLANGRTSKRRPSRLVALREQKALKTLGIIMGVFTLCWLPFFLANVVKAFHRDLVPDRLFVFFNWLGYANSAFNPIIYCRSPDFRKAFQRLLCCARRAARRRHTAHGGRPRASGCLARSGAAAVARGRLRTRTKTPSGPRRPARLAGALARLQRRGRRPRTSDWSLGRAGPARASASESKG
Assay: beta adrenoceptor blocking activity in the spontaneously beating guinea pig atrium (inhibition of positive chronotropic isoproterenol effect)
Type: cell-based
Conditions: dose which doubles the concentration of isoproterenol needed to elicit a 50% increase in heart rate; spontaneously beating guinea pig atrium; read-out: Guinea Pig Atrium, Effective Molar Dose (ID50)
Below is a list of entries, each paired with its recorded Kb value.
Entry rule: numbers only, all in nM.

Use the examples below as a reference point.
[
  {
    "COMPOUND": "CCCOCCOc1ccc(OCC(O)CN[C@H](C)CNC(=O)c2ccco2)c(F)c1 (stereo partly shown)",
    "Kb, nM": 8
  },
  {
    "COMPOUND": "CCCOCCOc1ccc(OCC(O)CNCCNC(=O)Nc2ccc3[nH]ccc3c2)c(C#N)c1 (stereo not shown)",
    "Kb, nM": 3
  },
  {
    "COMPOUND": "COCCOc1ccc(OCC(O)CNCCNC(=O)Nc2ccc3[nH]ccc3c2)c(C#N)c1 (stereo not shown)",
    "Kb, nM": 13
  }
]

Now take the following compound into account.
Query Kb on beta adrenoceptor (guinea pig atrium) (Cavia porcellus) for CCCOCCOc1ccc(OCC(O)CN[C@H](C)CNC(=O)c2ccco2)cc1 (stereo partly shown)
30
